Here the recorded EC50 is given for each entry.
measured_on: human PPARγ-LBD (Homo sapiens, UniProt P37231)
Construct: PPARγ-LBD (AAs 203–477 in isoform 1); made in house
Sequence (P37231 231-505): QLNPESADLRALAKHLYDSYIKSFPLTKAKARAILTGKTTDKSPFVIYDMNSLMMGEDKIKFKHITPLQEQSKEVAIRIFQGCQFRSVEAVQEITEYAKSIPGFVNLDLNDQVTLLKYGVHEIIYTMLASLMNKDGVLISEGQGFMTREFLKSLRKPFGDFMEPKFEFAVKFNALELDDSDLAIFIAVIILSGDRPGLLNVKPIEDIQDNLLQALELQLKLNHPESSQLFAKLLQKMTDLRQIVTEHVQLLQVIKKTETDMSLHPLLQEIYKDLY
assay_remarks: TR-FRET coactivator recruitment assay, PPARγ-LBD
Type: biochemical
measurement_setup: SRC1 peptide recruitment; Buffer A; read-out: PPARγ SRC1 EC50

>  <molecule>
CC[C@@H](Oc1cccc(CN(CCCOc2ccc(OC)cc2)c2nc3ccccc3o2)c1)C(=O)O [Pemafibrate, pemafibrate]

>  <EC50>
13.8 µM

$$$$
>  <molecule>
CCO[C@@H](Cc1ccc(OCCn2c(C)ccc2-c2ccc(SC)cc2)cc1)C(=O)O

>  <EC50>
5.55 µM

$$$$
>  <molecule>
O=C(O)CCCc1cc2cc(Cl)ccc2n1S(=O)(=O)c1ccc2ncsc2c1

>  <EC50>
7.69 µM

$$$$
>  <molecule>
CCO[C@H](COc1ccc(C(F)(F)F)cc1)CSc1ccc(OCC(=O)O)c(C)c1

>  <EC50>
22.4 µM

$$$$
>  <molecule>
CSc1ccc(C(=O)/C=C/c2cc(C)c(OC(C)(C)C(=O)O)c(C)c2)cc1

>  <EC50>
> 30 µM

$$$$
